- Tested on: murine dermal fibroblasts
- ASSAY OVERVIEW: RNA-Seq of newborn murine dermal fibroblasts
- Type: cell-based, mouse
- RECORDED CONDITIONS: 10^−7 M, 24 h
MEASURE: Stmn1 expression level

[[record]]
compound = "C=C1CCC(O)CC1=CC=C1CCCC2(C)C1CCC2C(C)(O)CC(O)CC(C)C (stereo not shown)"
measure = "Stmn1 expression level"
quantitative_readout = 6.591

[[record]]
compound = "CC(C)CCC[C@](C)(O)[C@H]1CC[C@H]2[C@@H]3CC=C4C[C@@H](O)CC[C@]4(C)[C@H]3CC[C@@]21C [20(OH)C, 20-hydroxycholesterol, reference compound]"
measure = "Stmn1 expression level"
quantitative_readout = 6.2905

[[record]]
compound = "C=C1C(=CC=C2CCCC3(C)C2CCC3C(C)(O)CC(O)CC(C)C)CC(O)CC1O (stereo not shown)"
measure = "Stmn1 expression level"
quantitative_readout = 5.272

[[record]]
compound = "C=C1/C(=C\\C=C2/CCC[C@]3(C)[C@@H]([C@H](C)CCCC(C)(C)O)CC[C@@H]23)C[C@@H](O)C[C@@H]1O [1,25(OH)2D3, reference compound]"
measure = "Stmn1 expression level"
quantitative_readout = 3.691


###

- Test system: murine dermal fibroblasts
- ASSAY OVERVIEW: RNA-Seq of newborn murine dermal fibroblasts
- Type: cell-based, mouse
- RECORDED CONDITIONS: 10^−7 M, 24 h
MEASURE: Tnnc2 expression level

[[record]]
compound = "C=C1CCC(O)CC1=CC=C1CCCC2(C)C1CCC2C(C)(O)CC(O)CC(C)C (stereo not shown) [20,23(OH)2D3]"
quantitative_readout = 0.313

[[record]]
compound = "CC(C)CCC[C@](C)(O)[C@H]1CC[C@H]2[C@@H]3CC=C4C[C@@H](O)CC[C@]4(C)[C@H]3CC[C@@]21C [20(OH)C, 20-hydroxycholesterol, reference compound]"
quantitative_readout = 0.1558

[[record]]
compound = "C=C1/C(=C\\C=C2/CCC[C@]3(C)[C@@H]([C@H](C)CCCC(C)(C)O)CC[C@@H]23)C[C@@H](O)C[C@@H]1O [1,25(OH)2D3, reference compound]"
quantitative_readout = 0

[[record]]
compound = "C=C1C(=CC=C2CCCC3(C)C2CCC3C(C)(O)CC(O)CC(C)C)CC(O)CC1O (stereo not shown) [1,20,23(OH)3D3]"
quantitative_readout = 0.3105


###

- System: murine dermal fibroblasts
- ASSAY OVERVIEW: RNA-Seq of newborn murine dermal fibroblasts
- Format: cell-based, mouse
- RECORDED CONDITIONS: 10^−7 M, 24 h, FC ≥ 2
Measured number of genes solely downregulated of individual entries
MEASURE: number of genes solely downregulated

[[record]]
compound = "C=C1/C(=C\\C=C2/CCC[C@]3(C)[C@@H]([C@H](C)CCCC(C)(C)O)CC[C@@H]23)C[C@@H](O)C[C@@H]1O [1,25(OH)2D3, reference compound]"
result = "159 (15%)"

[[record]]
compound = "CC(C)CCC[C@](C)(O)[C@H]1CC[C@H]2[C@@H]3CC=C4C[C@@H](O)CC[C@]4(C)[C@H]3CC[C@@]21C [20(OH)C, 20-hydroxycholesterol, reference compound]"
result = "109 (10.3%)"

[[record]]
compound = "C=C1CCC(O)CC1=CC=C1CCCC2(C)C1CCC2C(C)(O)CC(O)CC(C)C (stereo not shown)"
result = "116 (11%)"

[[record]]
compound = "C=C1C(=CC=C2CCCC3(C)C2CCC3C(C)(O)CC(O)CC(C)C)CC(O)CC1O (stereo not shown)"
result = "113 (10.7%)"


###

- System: murine dermal fibroblasts
- ASSAY OVERVIEW: RNA-Seq of newborn murine dermal fibroblasts
- Type: cell-based, mouse
- RECORDED CONDITIONS: 10^−7 M, 24 h
MEASURE: Wdr17 expression level

[[record]]
molecule = "C=C1/C(=C\\C=C2/CCC[C@]3(C)[C@@H]([C@H](C)CCCC(C)(C)O)CC[C@@H]23)C[C@@H](O)C[C@@H]1O [1,25(OH)2D3, reference compound]"
study_system = "murine dermal fibroblasts"
measure = "Wdr17 expression level"
result = 0.7213

[[record]]
molecule = "CC(C)CCC[C@](C)(O)[C@H]1CC[C@H]2[C@@H]3CC=C4C[C@@H](O)CC[C@]4(C)[C@H]3CC[C@@]21C [20(OH)C, 20-hydroxycholesterol, reference compound]"
study_system = "murine dermal fibroblasts"
measure = "Wdr17 expression level"
result = 0.677

[[record]]
molecule = "C=C1C(=CC=C2CCCC3(C)C2CCC3C(C)(O)CC(O)CC(C)C)CC(O)CC1O (stereo not shown) [1,20,23(OH)3D3]"
study_system = "murine dermal fibroblasts"
measure = "Wdr17 expression level"
result = 0.2366

[[record]]
molecule = "C=C1CCC(O)CC1=CC=C1CCCC2(C)C1CCC2C(C)(O)CC(O)CC(C)C (stereo not shown) [20,23(OH)2D3]"
study_system = "murine dermal fibroblasts"
measure = "Wdr17 expression level"
result = 1.106


###

- Tested on: murine dermal fibroblasts
- ASSAY OVERVIEW: RNA-Seq of newborn murine dermal fibroblasts
- Format: cell-based, mouse
- RECORDED CONDITIONS: 10^−7 M, 24 h
Reported Btc expression level is given for each of the following molecules.
MEASURE: Btc expression level

[[record]]
molecule = "C=C1C(=CC=C2CCCC3(C)C2CCC3C(C)(O)CC(O)CC(C)C)CC(O)CC1O (stereo not shown)"
result = 1.117

[[record]]
molecule = "C=C1/C(=C\\C=C2/CCC[C@]3(C)[C@@H]([C@H](C)CCCC(C)(C)O)CC[C@@H]23)C[C@@H](O)C[C@@H]1O [1,25(OH)2D3, reference compound]"
result = 0.9514

[[record]]
molecule = "C=C1CCC(O)CC1=CC=C1CCCC2(C)C1CCC2C(C)(O)CC(O)CC(C)C (stereo not shown)"
result = 0.8829

[[record]]
molecule = "CC(C)CCC[C@](C)(O)[C@H]1CC[C@H]2[C@@H]3CC=C4C[C@@H](O)CC[C@]4(C)[C@H]3CC[C@@]21C [20(OH)C, 20-hydroxycholesterol, reference compound]"
result = 1.112


###

- Tested on: genes downstream of LXR
- ASSAY OVERVIEW: qPCR of genes downstream of LXR in murine dermal fibroblasts
- Format: cell-based, mouse
- RECORDED CONDITIONS: 10^–7 M, 24 h
MEASURE: Cyp7a1 expression

[[record]]
molecule = "CC(C)CCC[C@](C)(O)[C@H]1CC[C@H]2[C@@H]3CC=C4C[C@@H](O)CC[C@]4(C)[C@H]3CC[C@@]21C [20(OH)C, 20-hydroxycholesterol, reference compound]"
measure = "Cyp7a1 expression"
result = "inhibited"

[[record]]
molecule = "CC(C)CCC[C@](C)(O)[C@H]1CC[C@H]2C3=CC=C4C[C@@H](O)CC[C@@]4(C)[C@@H]3CC[C@@]21C"
measure = "Cyp7a1 expression"
result = "inhibited"


###

# LBD of LXRα (Homo sapiens, UniProt Q13133): IC50 values follow
# Sequence (Q13133 209-447 limits assumed): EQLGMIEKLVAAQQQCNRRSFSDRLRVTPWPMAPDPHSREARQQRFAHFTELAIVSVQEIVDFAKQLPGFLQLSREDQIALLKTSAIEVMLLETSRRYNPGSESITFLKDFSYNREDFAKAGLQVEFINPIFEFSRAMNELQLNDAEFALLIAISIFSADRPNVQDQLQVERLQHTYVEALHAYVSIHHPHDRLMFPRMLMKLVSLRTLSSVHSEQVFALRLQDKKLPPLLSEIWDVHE
MEASURE: IC50

[[record]]
compound = "C=C1C(=CC=C2CCCC3(C)C2CCC3C(C)(O)CC(O)CC(C)C)CC(O)CC1O (centres unmarked)"
measure = "IC50"
result = "2100 nM"

[[record]]
compound = "C=C1/C(=C\\C=C2/CCC[C@]3(C)[C@@H]([C@H](C)CCCC(C)(C)O)CC[C@@H]23)C[C@@H](O)C[C@@H]1O [1,25(OH)2D3, reference compound]"
measure = "IC50"
result = "1100 nM"


###

- Tested on: murine dermal fibroblasts
- ASSAY OVERVIEW: RNA-Seq of newborn murine dermal fibroblasts
- Format: cell-based, mouse
- RECORDED CONDITIONS: 10^−7 M, 24 h
MEASURE: Snhg9 expression level

[[record]]
molecule = "C=C1C(=CC=C2CCCC3(C)C2CCC3C(C)(O)CC(O)CC(C)C)CC(O)CC1O (stereo not shown)"
measure = "Snhg9 expression level"
quantitative_readout = 3.722

[[record]]
molecule = "C=C1CCC(O)CC1=CC=C1CCCC2(C)C1CCC2C(C)(O)CC(O)CC(C)C (stereo not shown)"
measure = "Snhg9 expression level"
quantitative_readout = 7.505

[[record]]
molecule = "C=C1/C(=C\\C=C2/CCC[C@]3(C)[C@@H]([C@H](C)CCCC(C)(C)O)CC[C@@H]23)C[C@@H](O)C[C@@H]1O [1,25(OH)2D3, reference compound]"
measure = "Snhg9 expression level"
quantitative_readout = 3.721

[[record]]
molecule = "CC(C)CCC[C@](C)(O)[C@H]1CC[C@H]2[C@@H]3CC=C4C[C@@H](O)CC[C@]4(C)[C@H]3CC[C@@]21C [20(OH)C, 20-hydroxycholesterol, reference compound]"
measure = "Snhg9 expression level"
quantitative_readout = 7.471

